Tested on: K4 kissing-loop RNA reporter;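 note: bound reporter read as fluorescence of individual clusters on recovered sequencing chips by microscopy, with normalized cluster intensities fitted with a binding model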
Test: apparent KD of K4 kissing-loop reporter; higher = weaker reporter binding
Conditions: Eterna round: R107; input ligand: none
Class (by apparent KD of K4 kissing-loop reporter) -- low band (below 200 nM), middle band (200 nM to below 400 nM), high band (400 nM or more)

Recorded results for 2 sequences are shown here.
# Sequence Data, Assayed Target, Answer Label
data = [
    ("GUGCGCGGUGCGGCCGCCACUCGCAUGAGAGUGAUGUUCUCGGGACGGACGGAAGUCCGUCAUGUGAGGACCGGGCAUGGCUGCG [#2 Same State - Tryptophan B Attempt #10 (HarryS)]", "K4 kissing-loop RNA reporter", "high band"),
    ("GGUAGCAUGGCGGCCGCCACUUUUUUAGAUACCUACACAGAAAGCAGUGAUGUUGCUUGGUGGUAAAGGACCGGGCCAUGCUACC", "K4 kissing-loop RNA reporter", "low band"),
]

Category of GGCGUCAAACCAGAACUAGUGAUGUUGGUUCGAGGACCGGUACGGCCGCCACUCGAUCUCUUGGUCCAUCGCGGAAGGGCAGCGG [theeternabot_exclusion_KL_Trp_A_29] :
high band

Category of GCAAACCUCAGUGAUGUUGAGAAAUCGGAAGGAGCGCGUGAAAACGCAGGUAGGUCGCCGACACAUGAAGUAUCUUCGUGUUUGC [Arginine A K4 22] :
middle band

Category of UGUAUGUGAUUUGAUACCAGACCAGCUGGUGUUAGAUGAGUGAUGUUGAUCUAGGGUUGGGUCCCUUGGCAGCAAAUCGCAUACU [KL-SSTheoB22] :
high band

Category of UGCACGGGCUCGGCCGCCACUCCCGCGGGUCGCAAGGUCCGCUACUGAGUGAUGUUCGGUUGGAGGAGGACCGGGAGCCCGUGCA [#2 Exclusion - Tryptophan B Attempt #27 (HarryS)] :
low band

Category of CUAUGGAAACAUAGUGAGCGGGAAACCGAUACCAGUAUGGAAACAUACCCUUGGCAGCGGAAUGCUCAAACGGAGUGAUGUUCCG [Theophylline A K4 22] :
middle band

Category of UGGAUAUAGUGAUGUUAUAUAGAGAGGGAUACCAGUUUAGAGAAGAACCCUUGGCAGCCUAAAGAAGUAUCAUUAGAGAAGAAUG [ExTheophyl.An] :
middle band

###

System: MS2 coat protein
Experiment: apparent KD of MS2 coat protein; designed switch direction (-1 OFF switch, 1 ON switch): 1; higher = weaker reporter binding
Details: input ligand: FMN 200 uM
Measured Metric: apparent KD of MS2 coat protein (nM)
Record the value in nM, omitting the unit from your answer.

Can you look up apparent KD of MS2 coat protein on MS2 coat protein for GCGAGCGUACUUGCUACAUGAGGAUCACCCAUGUUAACUGGACAGGAUAUGGUACCGUUUCGGUACCAGAAGGGUUCAUCAUGU [JL SSNG3 3.68] (Eterna round: R96, puzzle: Same State NG 3) ?
306

Can you look up apparent KD of MS2 coat protein on MS2 coat protein for AACAGUCGGCGAGGAUAUGGACGUACGGACUAACCCAUACGGCUCACAUGAGGAUCACCCAUGUUCUAGAAGGCGCCACUGAAA [Soisce] (Eterna round: R96, puzzle: Same State NG 2) ?
18.1

Can you look up apparent KD of MS2 coat protein on MS2 coat protein for AAAAGAAACAUGUACCUGAGUACAUGAAAACAUGAGGAUCACCCAUGUAACAAGUUGGGUGUUUGUCUUAUAAGAAA [JL pocket 5] (Eterna round: R96, puzzle: Sensor for hsa-mir-208a) ?
68.7
